targetOrSystem: eqBuChE (Equus caballus)
Construct: eqBuChE (purified from equine serum)
Sequence (P81908 whole entry): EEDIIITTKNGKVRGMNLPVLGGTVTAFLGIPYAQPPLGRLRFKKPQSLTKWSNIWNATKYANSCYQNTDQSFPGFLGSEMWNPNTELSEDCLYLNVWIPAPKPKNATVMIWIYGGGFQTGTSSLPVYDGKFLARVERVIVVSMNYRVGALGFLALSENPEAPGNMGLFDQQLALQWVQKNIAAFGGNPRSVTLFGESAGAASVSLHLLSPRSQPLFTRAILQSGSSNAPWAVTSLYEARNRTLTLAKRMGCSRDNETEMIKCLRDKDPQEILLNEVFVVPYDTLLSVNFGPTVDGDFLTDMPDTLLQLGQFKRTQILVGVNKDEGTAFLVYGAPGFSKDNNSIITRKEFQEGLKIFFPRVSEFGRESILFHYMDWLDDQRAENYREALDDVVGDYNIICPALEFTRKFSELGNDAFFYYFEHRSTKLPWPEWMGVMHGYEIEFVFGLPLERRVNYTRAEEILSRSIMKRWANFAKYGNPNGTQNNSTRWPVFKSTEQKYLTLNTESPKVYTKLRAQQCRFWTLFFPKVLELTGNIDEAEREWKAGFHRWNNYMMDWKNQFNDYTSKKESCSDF
methodSummary: biochemical
settings: mean ± SEM
pIC50: −log10 of the molar value.
Entry flag: Y if pIC50 reaches 7; N if it does not.

stdin: Could you verify whether the entry COc1ccc2[nH]cc(CCNC(=O)CN(CCCCC3CCN(Cc4ccccc4)CC3)C(=O)c3cc(=O)c4ccccc4o3)c2c1 [14n] shows pIC50 of no less than 7?
stdout: Y

stdin: Could you verify whether the entry CCCOc1ccc2[nH]cc(CCNC(=O)CN(CCCC3CCN(Cc4ccccc4)CC3)C(=O)c3cc(=O)c4ccccc4o3)c2c1 [14l] shows pIC50 of no less than 7?
stdout: Y

stdin: Could you verify whether the entry O=C(CN(CC1CCN(Cc2ccccc2)CC1)C(=O)c1cc(=O)c2ccccc2o1)NCCc1c[nH]c2ccccc12 [14a] shows pIC50 of no less than 7?
stdout: N

stdin: Could you verify whether the entry CC(C)Oc1ccc2[nH]cc(CCNC(=O)CN(CCCC3CCN(Cc4ccccc4)CC3)C(=O)c3cc(=O)c4ccccc4o3)c2c1 [14k] shows pIC50 of no less than 7?
stdout: Y

stdin: Could you verify whether the entry O=C(CN(CCCC1CCN(Cc2ccccc2)CC1)C(=O)c1cc(=O)c2ccccc2o1)NCCc1c[nH]c2ccccc12 [14i] shows pIC50 of no less than 7?
stdout: Y

stdin: Could you verify whether the entry CCCOc1ccc2[nH]cc(CCNC(=O)CN(CCC3CCN(Cc4ccccc4)CC3)C(=O)c3cc(=O)c4ccccc4o3)c2c1 [14h] shows pIC50 of no less than 7?
stdout: Y

stdin: Could you verify whether the entry O=C(CN(CCCCC1CCN(Cc2ccccc2)CC1)C(=O)c1cc(=O)c2ccccc2o1)NCCc1c[nH]c2ccccc12 [14m] shows pIC50 of no less than 7?
stdout: N

---

targetOrSystem: hAChE (Homo sapiens)
Sequence (P22303 32-614): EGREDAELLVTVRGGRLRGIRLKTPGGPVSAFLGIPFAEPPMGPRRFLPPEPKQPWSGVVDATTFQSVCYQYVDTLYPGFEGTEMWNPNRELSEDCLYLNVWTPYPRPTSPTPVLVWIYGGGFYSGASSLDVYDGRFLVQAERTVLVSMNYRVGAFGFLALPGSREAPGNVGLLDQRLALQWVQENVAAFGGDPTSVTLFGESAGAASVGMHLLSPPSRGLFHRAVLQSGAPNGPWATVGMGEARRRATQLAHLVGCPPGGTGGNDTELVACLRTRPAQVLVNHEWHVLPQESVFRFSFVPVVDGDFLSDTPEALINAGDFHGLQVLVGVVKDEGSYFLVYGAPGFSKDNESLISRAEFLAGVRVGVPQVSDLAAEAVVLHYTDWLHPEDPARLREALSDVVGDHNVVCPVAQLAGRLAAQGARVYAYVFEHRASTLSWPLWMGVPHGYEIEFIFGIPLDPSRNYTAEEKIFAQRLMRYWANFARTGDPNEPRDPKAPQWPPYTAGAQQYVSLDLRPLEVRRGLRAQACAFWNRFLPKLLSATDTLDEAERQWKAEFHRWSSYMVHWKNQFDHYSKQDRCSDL
readoutType: IC50 (nM)
Expressed in nM, but write only the number.

stdin: Dear colleague, I am looking for the recorded IC50 of the following compound: CC(C)Oc1ccc2[nH]cc(CCNC(=O)CN(CCC3CCN(Cc4ccccc4)CC3)C(=O)c3cc(=O)c4ccccc4o3)c2c1 [14g]
stdout: 2000

stdin: Dear colleague, I am looking for the recorded IC50 of the following compound: COc1ccc2[nH]cc(CCNC(=O)CN(CCCCC3CCN(Cc4ccccc4)CC3)C(=O)c3cc(=O)c4ccccc4o3)c2c1 [14n]
stdout: 1730

stdin: Dear colleague, I am looking for the recorded IC50 of the following compound: CCCOc1ccc2[nH]cc(CCNC(=O)CN(CCC3CCN(Cc4ccccc4)CC3)C(=O)c3cc(=O)c4ccccc4o3)c2c1 [14h]
stdout: 2040

stdin: Dear colleague, I am looking for the recorded IC50 of the following compound: COc1ccc2[nH]cc(CCNC(=O)CN(CCC3CCN(Cc4ccccc4)CC3)C(=O)c3cc(=O)c4ccccc4o3)c2c1 [14f]
stdout: 360

stdin: Dear colleague, I am looking for the recorded IC50 of the following compound: O=C(CN(CCC1CCN(Cc2ccccc2)CC1)C(=O)c1cc(=O)c2ccccc2o1)NCCc1c[nH]c2ccccc12 [14e]
stdout: 2620

stdin: Dear colleague, I am looking for the recorded IC50 of the following compound: CCCOc1ccc2[nH]cc(CCNC(=O)CN(CCCCC3CCN(Cc4ccccc4)CC3)C(=O)c3cc(=O)c4ccccc4o3)c2c1 [14p]
stdout: 2100
